- subject of test: Mitogen-activated protein kinase 3 (Homo sapiens) (UniProt P27361)
- Sequence (P27361 whole entry): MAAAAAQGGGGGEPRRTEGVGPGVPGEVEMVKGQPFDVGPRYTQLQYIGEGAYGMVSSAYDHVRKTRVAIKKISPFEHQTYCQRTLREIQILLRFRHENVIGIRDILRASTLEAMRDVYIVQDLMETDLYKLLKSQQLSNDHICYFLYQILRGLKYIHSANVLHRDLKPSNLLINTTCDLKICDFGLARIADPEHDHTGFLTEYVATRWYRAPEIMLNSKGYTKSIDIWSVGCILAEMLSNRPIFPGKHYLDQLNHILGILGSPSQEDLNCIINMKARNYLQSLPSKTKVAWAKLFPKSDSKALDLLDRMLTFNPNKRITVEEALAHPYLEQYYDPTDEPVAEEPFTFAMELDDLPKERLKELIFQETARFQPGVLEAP
- method: Inhibition of Erk1 in human PC3 cell lysates at 10 uM using desthiobiotin-tagged ATP probe AX9989 followed by trypsinization by LC/MS analysis
- particulars: PC-3
Below, each entry is listed with its recorded inhibition.

O=C(NC1(c2ccccc2)CC1)c1ccc2nc(N[C@H]3CC[C@H](O)CC3)c3nccn3c2c1
< 35%
CC(C)(NC(=O)c1ccc2nc(N[C@H]3CC[C@H](O)CC3)c3nccn3c2c1)c1ccccc1
< 35%

Let us examine a further case.
[Q] Value lookup for inhibition; key = `NC(=O)c1ccc2nc(N[C@H]3CC[C@H](O)CC3)c3nccn3c2c1`
[A] < 35%
